meta.source: patent US20230242499A1

Reported LOD (zmol) by item:
# Tested on: alkaline phosphatase
# EXPERIMENTAL_DETAILS: Test Example 2: chemiluminescence intensity versus amount of alkaline phosphatase, limit of detection
# Format: biochemical
# TEST_SETTINGS: 42° C., 5 minutes incubation, buffer pH 9.6 with magnesium chloride and Sapphire-II Enhancer added (S (+)), HISCL R4 reagent

| COMPOUND | TARGET_OR_TEST_SYSTEM | LOD (zmol) |
| --- | --- | --- |
| COC1(c2ccc(-c3ccc(C(=O)O)cc3)c(OP(=O)(O)O)c2)OOC12C1CC3CC2CC(Cl)(C3)C1 (stereo not shown) [Example 4] | alkaline phosphatase | 100 |
| COC1(c2ccc(C#CC(=O)O)c(OP(=O)(O)O)c2)OOC12C1CC3CC2CC(Cl)(C3)C1 (stereo not shown) [Example 3] | alkaline phosphatase | 7 |
| COC1(c2ccc(C#Cc3ccc(C(=O)O)cc3)c(OP(=O)(O)O)c2)OOC12C1CC3CC2CC(Cl)(C3)C1 (stereo not shown) [Example 1] | alkaline phosphatase | 10 |
| C#Cc1ccc(C2(OC)OOC23C2CC4CC3CC(Cl)(C4)C2)cc1OP(=O)(O)O (stereo not shown) [Example 2] | alkaline phosphatase | 4 |
